# Protocol text: IANBD-channel fluorescence artefacts in buffer – biochemical, artefact control for cardiac RTF calcium sensitizer project, confirmation (AID 504382)
# Condition label: IANBD fluorescence interference counterscreen, EC20 Ca2+, at 7.2 µM, active compounds read high, scaled: EC20 calcium 0, EC100 calcium 100
Out of some 2,500 compounds screened, about 460 (18%) were called active. Not all results are given here.
Assign fluorescence artifact activation to each entry below.

query: Reported fluorescence artifact activation for O=C(O)c1ncc(-c2ccccc2)cn1 : what is it?
result: 43.6% (active)

query: Reported fluorescence artifact activation for CCOC(=O)/C(=C/C=C1\Sc2cc(C)c(C)cc2N1CC)C(C)=O : what is it?
result: 0.02% (inactive)

query: Reported fluorescence artifact activation for COCCCn1c(=O)/c(=C\c2cccc(OC)c2OC)s/c1=C(/C#N)C(=O)Nc1ccc(C(=O)O)cc1 : what is it?
result: 2.82% (inactive)

query: Reported fluorescence artifact activation for NC(=O)C1CCN(C(=O)c2ccc(-c3ccccc3)cc2)CC1 : what is it?
result: 4.63% (inactive)

query: Reported fluorescence artifact activation for COc1ccc2nc(-c3ccccn3)[nH]c2c1 : what is it?
result: 20.2% (active)

query: Reported fluorescence artifact activation for CCOC(=O)/C(=C/C1=CC(=C/N(C)C)/C(=O)O1)C(C)=O : what is it?
result: 22.1% (active)

query: Reported fluorescence artifact activation for CC(C)C(=O)COc1c2occc2cc2ccc(=O)oc12 : what is it?
result: 0.07% (inactive)

query: Reported fluorescence artifact activation for O=C1CCN2C=Nc3cccc4ccc1c2c34 : what is it?
result: -0.03% (inactive)

query: Reported fluorescence artifact activation for COc1cccc(C(=O)NC2CC3CCCC(C2)N3CC(=O)Nc2ccc(N(C)C)cc2)c1 (stereo unspecified) : what is it?
result: 3.62% (inactive)

query: Reported fluorescence artifact activation for S=C1NC2=C(CCCC2=C2SCCCS2)C(c2ccccc2)N1 (stereo unspecified) : what is it?
result: 0.29% (inactive)

query: Reported fluorescence artifact activation for Cc1cccc(CSc2ccc(-c3ccco3)nn2)c1 : what is it?
result: 0.5% (inactive)

---

Assign fluorescence artifact activation to each entry below.
# Protocol text: IANBD-channel fluorescence artefacts in buffer – biochemical, artefact control for cardiac RTF calcium sensitizer project, confirmation (AID 504382)
# Condition label: IANBD fluorescence interference counterscreen, EC20 Ca2+, at 7.2 µM, active compounds read high, scaled: EC20 calcium 0, EC100 calcium 100
Out of some 2,500 compounds screened, about 460 (18%) were called active. The list is a sample of the results.
The reply should be a number in %, with the unit left off.

query: Reported fluorescence artifact activation for CSc1c(CC(=O)NCCO)n(C)c2ccccc12 : what is it?
result: 4.19

query: Reported fluorescence artifact activation for CC(=O)Oc1ccc(N2C(=O)C3C(C2=O)C(C(=O)c2ccc(Cl)cc2)N2CCCC32)cc1 (stereo not given) : what is it?
result: 12.2

query: Reported fluorescence artifact activation for Cc1ccc(Cn2cc(CCC(=O)O)c3ccccc32)cc1 : what is it?
result: 2.34

query: Reported fluorescence artifact activation for COc1ccccc1N1C(=O)c2cccc3c(N(C)CCO)ccc(c23)C1=O : what is it?
result: 0.41

query: Reported fluorescence artifact activation for O=C(c1ccccc1)[C@@H]1[C@@H]2C(=O)N(c3ccc(F)cc3)C(=O)[C@@H]2C2CCCN21 (stereo not given in full) : what is it?
result: 1.82

query: Reported fluorescence artifact activation for Cc1ccc(N2C(=O)[C@@H]3[C@H](C2=O)C2CCCN2[C@@H]3C(=O)c2ccccc2)cc1 (stereo not given in full) : what is it?
result: 65.3

query: Reported fluorescence artifact activation for CC(C)N1CC=C2C(C#N)=C(N)C(C#N)(C#N)C(c3ccccc3)C2C1 (stereo not given) : what is it?
result: 0.48

query: Reported fluorescence artifact activation for CCOC(=O)c1ccc(N2C(=O)C3C(C2=O)C(C(=O)c2ccc(Cl)cc2)N2CCCC32)cc1 (stereo not given) : what is it?
result: 1.5

query: Reported fluorescence artifact activation for COc1ccc(N2C(=O)C3C(C2=O)C(C(=O)c2ccc(Cl)cc2)N2CCCC32)cc1 (stereo not given) : what is it?
result: 2.56

query: Reported fluorescence artifact activation for CC(=O)n1cc(CO)c2ccccc21 : what is it?
result: 95.5

---

# Protocol text: IANBD-channel fluorescence artefacts in buffer – biochemical, artefact control for cardiac RTF calcium sensitizer project, confirmation (AID 504382)
# Condition label: IANBD fluorescence interference counterscreen, EC20 Ca2+, at 7.2 µM, active compounds read high, scaled: EC20 calcium 0, EC100 calcium 100
The whole screen tested about 2,500 compounds, of which about 460 (18%) were called active. These entries were drawn from the full list.
Measured parameter: fluorescence artifact activation (%)
The reply should be a number in %, with the unit left off.

query: Reported fluorescence artifact activation for COc1cc(/C=C/C(=O)CC(=O)/C=C/c2ccc(O)c(OC)c2)ccc1O : what is it?
result: 0.15

query: Reported fluorescence artifact activation for CN(C)c1ccc(/C=C/C(=O)c2ccccc2O)cc1 : what is it?
result: 0

query: Reported fluorescence artifact activation for Cc1c(C(=O)NCc2ccc3c(c2)cc(C)n3C)cccc1[N+](=O)[O-] : what is it?
result: 0.13

query: Reported fluorescence artifact activation for CCOc1ccccc1N1CCN(CC(=O)c2c(N)n(C)c(=O)n(C)c2=O)CC1 : what is it?
result: 2.53

query: Reported fluorescence artifact activation for Nc1c(S(=O)(=O)c2ccccc2)c2nc3ccccc3nc2n1Cc1ccco1 : what is it?
result: 22.8

query: Reported fluorescence artifact activation for Nc1c(S(=O)(=O)c2ccccc2)c2nc3ccccc3nc2n1/N=C/c1ccco1 : what is it?
result: -0.02

query: Reported fluorescence artifact activation for Cc1cc(NC(=O)COC(=O)C(Cc2ccccc2)NC(=O)c2ccco2)no1 (stereo not given) : what is it?
result: 9.69

query: Reported fluorescence artifact activation for CC(=O)NC(CCS(C)(=O)=O)C(=O)Nc1cc(C)on1 (stereo not given) : what is it?
result: 0.57

query: Reported fluorescence artifact activation for COc1cc(/C=C/C(=O)/C=C(O)/C=C/c2ccc(O)c(OC)c2)ccc1O : what is it?
result: 110

query: Reported fluorescence artifact activation for CC(C)CN(C(=O)CCCc1nc2ccccc2c(=O)[nH]1)c1c(N)n(Cc2ccccc2)c(=O)[nH]c1=O : what is it?
result: 0.01

---

# Protocol text: IANBD-channel fluorescence artefacts in buffer – biochemical, artefact control for cardiac RTF calcium sensitizer project, confirmation (AID 504382)
# Condition label: IANBD fluorescence interference counterscreen, EC20 Ca2+, at 7.2 µM, scaled: EC20 calcium 0, EC100 calcium 100
Screen size: about 2,500 compounds; about 460 (18%) were called active.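 How the source made its calls: active means mean activation above a cutoff of low control average plus 3 SD from the earlier screen (cut at about 12% in these data); inactive means the rest.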 Not all results are given here.
Respond only with the outcome that fits, drawn from active, inactive

query: Returns: the outcome recorded for O=C(COC(=O)/C=C/c1ccc(Cl)cc1)NCCN1C(=O)CSC1=O in this assay.
result: inactive

query: Returns: the outcome recorded for O=C(O)c1cccc(-c2ccc(/C=N/Nc3ccc([N+](=O)[O-])cc3)o2)c1 in this assay.
result: inactive

query: Returns: the outcome recorded for CN1c2ccccc2C(O)=C(C(=S)Nc2ccc(F)c(Cl)c2)S1(=O)=O in this assay.
result: active

query: Returns: the outcome recorded for CC(C)(C)c1cc(NC(=O)c2cccc(S(=O)(=O)N3CCOCC3)c2)no1 in this assay.
result: inactive

query: Returns: the outcome recorded for CCN1/C(=C/c2ccc3cc(C)ccc3[n+]2CC)Sc2ccc3sccc3c21 in this assay.
result: inactive

query: Returns: the outcome recorded for Cc1cc(NC(=O)/C(C#N)=C\c2ccc(-c3ccc(SC(F)F)cc3)o2)n(-c2ccccc2)n1 in this assay.
result: active

query: Returns: the outcome recorded for Cc1cc2nc3c(=O)[nH]c(=O)[nH]c3nc2c([N+](=O)[O-])c1N in this assay.
result: inactive

query: Returns: the outcome recorded for CC(C)c1nnc(N2C(=O)C(O)=C(C(=O)c3cccs3)C2c2ccccc2)s1 (stereo not drawn) in this assay.
result: inactive

query: Returns: the outcome recorded for CCC1SC(=Nc2cccc(C)c2)NC1=O (stereo not drawn) in this assay.
result: active

query: Returns: the outcome recorded for Cc1ccc(C)c(NC(=O)CCN2CCOCC2)c1 in this assay.
result: inactive

query: Returns: the outcome recorded for CCCCC1OC2(C)OC(=N)C1(C#N)C(C#N)(C#N)C2c1ccccc1 (stereo not drawn) in this assay.
result: inactive

query: Returns: the outcome recorded for Cc1ccc(NC(=O)Nc2ccc(F)cc2)cc1Cl in this assay.
result: inactive

query: Returns: the outcome recorded for CCOC(=O)/C(C#N)=C\c1ccc(N2CCN(C/C=C/c3ccccc3)CC2)cc1 in this assay.
result: inactive

query: Returns: the outcome recorded for CCOC(=O)/C(C#N)=C/c1ccc(N2CCN(Cc3ccccc3)CC2)cc1 in this assay.
result: active

query: Returns: the outcome recorded for CCN1/C(=C/c2ccc3cc(C)ccc3[n+]2CC)Sc2cc(C)ccc21 in this assay.
result: inactive

query: Returns: the outcome recorded for CCN1/C(=C\c2ccc3ccccc3[n+]2CC)Sc2cc(C)ccc21 in this assay.
result: active

query: Returns: the outcome recorded for CC1=Nc2ccccc2/C1=C\c1nc(-c2ccc(C(F)(F)F)cc2)oc1O in this assay.
result: inactive

query: Returns: the outcome recorded for O=C(COc1ccc(Cl)cc1[N+](=O)[O-])N1CCCCC1 in this assay.
result: active

query: Returns: the outcome recorded for CCOC(=O)c1c(NC(=O)CSc2nc3cc(Cl)ccc3c(=O)n2Cc2ccco2)sc(C(=O)N(C)C)c1C in this assay.
result: inactive

query: Returns: the outcome recorded for CCOc1cc(C2C3=C(CCCC3=O)N(C)C3=C2C(=O)CCC3)cc(Cl)c1O in this assay.
result: inactive

query: Returns: the outcome recorded for CCOC(=O)c1c(C(C)(C)C)oc2ccc(OCC#N)cc12 in this assay.
result: inactive

query: Returns: the outcome recorded for CN(/N=C/c1ccc(N(C)C)cc1)C1=NS(=O)(=O)c2ccccc21 in this assay.
result: inactive

query: Returns: the outcome recorded for O=C(NN1C(=O)c2ccccc2NC1c1ccco1)c1ccccc1 (stereo not drawn) in this assay.
result: inactive

query: Returns: the outcome recorded for Cc1cc(=O)n2nc(N3CCCC3C(=O)Nc3ccc(C(C)C)cc3)sc2n1 (stereo not drawn) in this assay.
result: active

query: Returns: the outcome recorded for Cn1c2c(c(=O)n(C)c1=O)C(C(F)(F)F)(C(F)(F)F)N=C(CCC1CCCCC1)N2 in this assay.
result: inactive

query: Returns: the outcome recorded for Cc1cc(NS(C)(=O)=O)c(=O)n(Cc2cccc(F)c2)c1 in this assay.
result: inactive

query: Returns: the outcome recorded for CCOc1cc(C2C(C#N)=C(N)OC(C)=C2C(C)=O)cc(Br)c1O (stereo not drawn) in this assay.
result: active

query: Returns: the outcome recorded for CC(OC(=O)/C(C#N)=C/c1ccc(N(C)C)cc1)C(=O)N(C)Cc1ccccc1 (stereo not drawn) in this assay.
result: inactive

query: Returns: the outcome recorded for COCCCn1c(=O)/c(=C\c2ccccc2OC(C)C)s/c1=C(/C#N)C(=O)Nc1ccc(C(=O)O)cc1 in this assay.
result: inactive

query: Returns: the outcome recorded for CCN1/C(=C/c2ccc3cc(C)cc(C)c3[n+]2CC)Sc2cc(C)ccc21 in this assay.
result: inactive

query: Returns: the outcome recorded for CCOC(=O)c1cc2c(=O)n3ccccc3nc2n(CCOC)c1=NC(=O)c1c(-c2c(F)cccc2Cl)noc1C in this assay.
result: inactive

query: Returns: the outcome recorded for CCOc1ccc(NC(=O)COC(=O)CCN2C(=O)C3CC=CCC3C2=O)cc1OCC (stereo not drawn) in this assay.
result: inactive

query: Returns: the outcome recorded for O=C(NCC1CC1)Nc1cccc(Cl)c1 in this assay.
result: inactive

query: Returns: the outcome recorded for CCN1/C(=C\c2ccc3cc(C)ccc3[n+]2CC)Sc2cc(C)c(C)cc21 in this assay.
result: inactive

query: Returns: the outcome recorded for O=C(COc1ccc(Cl)cc1[N+](=O)[O-])N1CCCCCC1 in this assay.
result: inactive

query: Returns: the outcome recorded for COc1ccc(NC(=O)CCN2CCCC2)c(OC)c1 in this assay.
result: active

query: Returns: the outcome recorded for CC(C)CCN1C(=O)c2cccc3c(N)ccc(c23)C1=O in this assay.
result: inactive

query: Returns: the outcome recorded for O=C(NCc1ccco1)c1cc(-c2cccc(Cl)c2)on1 in this assay.
result: inactive

query: Returns: the outcome recorded for CCCC1OC23CCCCC2C(C#N)(C#N)C1(C#N)C(=N)O3 (stereo not drawn) in this assay.
result: active

query: Returns: the outcome recorded for O=C(CSc1ccc(-c2cccs2)nn1)N1CCCCC1 in this assay.
result: inactive

query: Returns: the outcome recorded for COc1ccc(NC(=O)CCN2CC(C)OC(C)C2)c(OC)c1 (stereo not drawn) in this assay.
result: inactive

query: Returns: the outcome recorded for CCC(C)n1ncn(-c2ccc(N3CCN(c4ccc(OCC5COC(Cn6cncn6)(c6ccc(Cl)cc6Cl)O5)cc4)CC3)cc2)c1=O (stereo not drawn) in this assay.
result: active

query: Returns: the outcome recorded for COc1cc(NC(=O)[C@@H]2CCCN2S(=O)(=O)c2cccc3cccnc23)cc(OC)c1OC in this assay.
result: inactive
